src = patent US12187713B2

Collected IC50 values appear next to each entry.
target: PD-1/PD-L1 (Homo sapiens (Human), UniProt Q9NZQ7); assay: PD-1/PD-L1 Binding Assay (Alphascreen); details: range symbols
Sequence (Q9NZQ7 19-238): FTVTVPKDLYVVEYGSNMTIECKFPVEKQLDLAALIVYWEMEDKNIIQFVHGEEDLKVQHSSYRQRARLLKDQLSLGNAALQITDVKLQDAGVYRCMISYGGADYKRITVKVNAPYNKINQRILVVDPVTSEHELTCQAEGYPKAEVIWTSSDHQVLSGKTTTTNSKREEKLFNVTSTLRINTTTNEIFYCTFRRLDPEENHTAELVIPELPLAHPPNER

compound: Cc1c(-c2nc3cc(CN4CCC[C@H]4C(=O)O)c(OC(F)F)cc3o2)cccc1-c1cccc(-c2nc3cc(CNCC4CNC4)cc(C#N)c3o2)c1C
IC50: 0.1 to 5 nM
//
compound: Cc1c(-c2nc3c(o2)CCN(CCC(F)(F)F)C3)cccc1-c1cccc(-c2nc3cc(CN4CCC[C@H]4C(=O)O)c(OC(F)F)cc3o2)c1C
IC50: > 50 nM
//
compound: COc1nc(-c2cccc(-c3cccc(-c4nc5cc(CN6CCC[C@H]6C(=O)O)c(OC(F)F)cc5o4)c3C)c2C)cnc1CN1CCCC1
IC50: 0.1 to 5 nM
//
compound: Cc1c(-c2ccc(CN3CCCC3)cn2)cccc1-c1cccc(-c2nc3cc(CN4CCC[C@H]4C(=O)O)c(OC(F)F)cc3o2)c1C
IC50: 0.1 to 5 nM
//
compound: Cc1c(-c2cnc(N3CCN(C)CC3)nc2)cccc1-c1cccc(-c2nc3cc(CN4CCC[C@H]4C(=O)O)c(OC(F)F)cc3o2)c1C
IC50: 5 to 50 nM
//
compound: Cc1c(-c2nc3cc(CN4CCC4C)c(OC(F)F)cc3o2)cccc1-c1cccc(-c2nc3cc(CN4CCC[C@H]4C(=O)O)c(OC(F)F)cc3o2)c1C (some centres unmarked)
IC50: 0.1 to 5 nM
//
compound: Cc1c(-c2nc3cc(CN4CCC[C@H]4C(=O)O)c(OC(F)F)cc3o2)cccc1-c1cccc(-c2nc3cc(CN4CCCC4)cnc3o2)c1C
IC50: 0.1 to 5 nM
//
compound: Cc1c(-c2nc3cc(CN4CCC[C@H]4C(=O)O)c(OC(F)F)cc3o2)cccc1-c1cccc(-c2nc3cc(CN4CCC(F)C4)cc(C(F)(F)F)c3o2)c1C (some centres unmarked)
IC50: 5 to 50 nM
//
compound: Cc1c(-c2cnc(CN3CCCC3)cn2)cccc1-c1cccc(-c2nc3cc(CN4CCC[C@H]4C(=O)O)c(OC(F)F)cc3o2)c1C
IC50: 5 to 50 nM
//
compound: Cc1c(-c2nc3cc(CN4CCC[C@H]4C(=O)O)c(OC(F)F)cc3o2)cccc1-c1cccc(-c2nc3cc(CN4CCC(F)C4)cc(C#N)c3o2)c1C (some centres unmarked)
IC50: 5 to 50 nM
//
compound: Cc1c(-c2nc3cc(CN4CCC[C@H]4C(=O)O)c(OC(F)F)cc3o2)cccc1-c1cccc(-c2nc3cc(CN4CC[C@H](C)C4)cc(C#N)c3o2)c1C
IC50: 0.1 to 5 nM
//
compound: Cc1c(-c2nc3cc(CN4CCC[C@H]4C(=O)O)c(OC(F)F)cc3o2)cccc1-c1cccc(-c2nc3cc(CN4CCC(C)C4)cc(C(F)(F)F)c3o2)c1C (some centres unmarked)
IC50: 0.1 to 5 nM
//
compound: Cc1c(-c2nc3cc(CN4CCC[C@@H]4C(=O)O)c(OC(F)F)cc3o2)cccc1-c1cccc(-c2nc3cc(CN4CCCC4)cc(C#N)c3o2)c1C
IC50: 0.1 to 5 nM
//
compound: Cc1c(-c2ccc(CN3CC[C@@H](c4nnn[nH]4)C3)c(F)c2)cccc1-c1cccc(-c2nc3cc(CN4CCC[C@H]4C(=O)O)c(OC(F)F)cc3o2)c1C
IC50: 5 to 50 nM
